Data credit: patent US6346549B1

# TEST_SYSTEM: [3H]Dopamine reuptake in rat brain tissue (Rattus norvegicus, UniProt P23977)
# Sequence (P23977 whole entry): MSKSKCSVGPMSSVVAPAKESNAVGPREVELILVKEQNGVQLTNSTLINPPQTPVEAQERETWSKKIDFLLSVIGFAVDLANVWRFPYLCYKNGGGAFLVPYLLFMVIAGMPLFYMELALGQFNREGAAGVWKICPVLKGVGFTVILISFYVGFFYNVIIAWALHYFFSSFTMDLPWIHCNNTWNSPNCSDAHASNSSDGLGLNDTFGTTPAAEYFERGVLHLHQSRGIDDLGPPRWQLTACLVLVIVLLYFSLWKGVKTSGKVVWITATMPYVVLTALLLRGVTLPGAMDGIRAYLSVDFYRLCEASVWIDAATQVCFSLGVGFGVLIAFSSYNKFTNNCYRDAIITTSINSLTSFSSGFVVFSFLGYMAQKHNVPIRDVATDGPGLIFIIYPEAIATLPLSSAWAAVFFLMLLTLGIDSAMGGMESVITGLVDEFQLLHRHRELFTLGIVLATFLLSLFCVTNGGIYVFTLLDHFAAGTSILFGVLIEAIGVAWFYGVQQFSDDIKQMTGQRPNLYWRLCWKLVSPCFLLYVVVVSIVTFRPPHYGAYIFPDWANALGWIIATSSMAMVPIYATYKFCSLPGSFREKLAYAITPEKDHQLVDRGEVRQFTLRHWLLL
# EXPERIMENTAL_PROTOCOL: biochemical
ASSAY_METRIC: pKi
Please note pKi is a logarithmic value: minus log10 of concentration in mol/L. Answer with that number alone.

# query: pKi | item CC(NC(C)(C)C)C(=O)c1cccc(Cl)c1 (stereo not shown) | system: [3H]Dopamine reuptake in rat brain tissue (Rattus norvegicus, UniProt P23977)
6.39
